- assayMethodText: pharmacokinetic study of five major components after oral administration of BZD (HPLC-QQQ MS)
- Type: in vivo, Sprague–Dawley (SD) rats
- measurementParameters: Sprague-Dawley, rat, liver, po, 15 g/kg; rats, oral BZD 15 g/kg, n = 5
Recorded half-life by entry
I only need the number, in h, no unit after it.

C[C@@H](CC[C@@]1(O)O[C@H]2C[C@H]3[C@@H]4CC[C@@H]5C[C@@H](O[C@@H]6O[C@H](CO)[C@H](O)[C@H](O)[C@H]6O[C@@H]6O[C@H](CO)[C@@H](O)[C@H](O)[C@H]6O)CC[C@]5(C)[C@H]4CC[C@]3(C)[C@H]2[C@@H]1C)CO[C@@H]1O[C@H](CO)[C@@H](O)[C@H](O)[C@H]1O 116

Input: Find the recorded half-life belonging to C[C@H]1CC[C@@]2(OC1)O[C@H]1C[C@H]3[C@@H]4CC[C@@H]5C[C@@H](O[C@@H]6O[C@H](CO)[C@H](O)[C@H](O)[C@H]6O[C@@H]6O[C@H](CO)[C@@H](O)[C@H](O)[C@H]6O)CC[C@]5(C)[C@H]4CC[C@]3(C)[C@H]1[C@@H]2C and report it.
Output: 12.2

###

- assayMethodText: pharmacokinetic study of five major components after oral administration of BZD (HPLC-QQQ MS)
- Type: in vivo, Sprague–Dawley (SD) rats
- measurementParameters: Sprague-Dawley, rat, cerebellum, po, 15 g/kg; rats, oral BZD 15 g/kg, n = 5
parameter: half-life (h)
Number only, in h; omit the unit.

Input: Record request: half-life value, item C[C@@H](CC[C@@]1(O)O[C@H]2C[C@H]3[C@@H]4CC[C@@H]5C[C@@H](O[C@@H]6O[C@H](CO)[C@H](O)[C@H](O)[C@H]6O[C@@H]6O[C@H](CO)[C@@H](O)[C@H](O)[C@H]6O)CC[C@]5(C)[C@H]4CC[C@]3(C)[C@H]2[C@@H]1C)CO[C@@H]1O[C@H](CO)[C@@H](O)[C@H](O)[C@H]1O [Timosaponin BII, timosaponin BII]
Output: 16.2

The origin of these recorded values is paper PMC6757420.
